Protein target, amino acids: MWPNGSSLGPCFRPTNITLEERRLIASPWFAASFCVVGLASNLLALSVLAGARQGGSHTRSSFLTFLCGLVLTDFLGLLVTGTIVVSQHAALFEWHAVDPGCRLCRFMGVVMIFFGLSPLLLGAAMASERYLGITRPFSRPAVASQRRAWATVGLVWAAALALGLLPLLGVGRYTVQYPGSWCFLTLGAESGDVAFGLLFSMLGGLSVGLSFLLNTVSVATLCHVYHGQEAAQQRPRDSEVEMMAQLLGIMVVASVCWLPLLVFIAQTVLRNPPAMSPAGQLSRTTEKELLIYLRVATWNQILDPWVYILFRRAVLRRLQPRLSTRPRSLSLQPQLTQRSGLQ
readout_kind: Ki

As a guide, the following entries are already answered.
Req: Fill in Ki for record C[C@H](NC(=O)c1cccc2ccn(Cc3cc(Cl)cc(OC(F)(F)F)c3)c12)c1ccc(C(=O)O)cc1
Resp: ≥ 260 nM

Req: Fill in Ki for record O=C(O)c1ccc(C2(NC(=O)c3cc(Cl)cc4ccn(Cc5ccc(C(F)(F)F)cc5)c34)CC2)cc1
Resp: ≥ 1290 nM

Further cases:
Req: Fill in Ki for record C[C@H](NC(=O)c1cccc2ccn(Cc3ccc(C(F)(F)F)cc3)c12)c1ccc(C(=O)O)cc1
Resp: ≥ 580 nM

Req: Fill in Ki for record O=C(O)c1ccc(C2(NC(=O)c3cccc4ccn(Cc5ccc(C(F)(F)F)cc5)c34)CC2)cc1
Resp: 6700 nM

Req: Fill in Ki for record C[C@H](NC(=O)c1cccc2c(Cl)cn(Cc3cccc(Cl)c3)c12)c1ccc(C(=O)O)cc1
Resp: ≥ 930 nM

Req: Fill in Ki for record C[C@H](NC(=O)c1cc(Cl)cc2ccn(Cc3cccc(Cl)c3)c12)c1ccc(C(=O)O)cc1
Resp: ≥ 110 nM

Req: Fill in Ki for record C[C@H](NC(=O)c1cccc2ccn(Cc3cccc(C(F)(F)F)c3)c12)c1ccc(C(=O)O)cc1
Resp: ≥ 785 nM
